# credit: paper PMC13397619

B1: NLV3 TCR beta chain (CDR3β only) (parent)
chain: ASSPTGGSPSPLH

# Variants of: B1
# method: T-Switch: Jurkat TCRβ−/− cells expressing a CDR3 saturation-mutagenesis library, stained with two peptide-HLA-A*02:01 tetramers (original and novel peptide) plus anti-CD3, FACS-sorted into four gates, gDNA sequenced
# conditionInfo: with both tetramers (double-negative gate, binds neither): HLA-A*02:01 with … and with …, tetramers 1 µg/mL, 30 min on ice, SP, DP and SW gates expanded about 10 days between rounds ('two to three rounds of selection' in the Methods), gate DN: OPPOSITE: higher = more of the variant in the gate that binds neither peptide = LESS binding (or no expression; inferred). Fold enrichment of the CDR3 variant in one FACS gate of a two-tetram, unresolved parent, parent is a CDR3 fragment, scale: fold enrichment, numbering: sequential-on-construct, sequence starts at 1
Group membership follows enrichment per the scheme bin 1 = under 0.7, bin 2 = from 0.7 up to 0.9, bin 3 = 0.9 and over

Observe how each entry below is paired with its result.
INSERT INTO measurements (mutationstring, labelclass) VALUES
  ('[…] (CDR3 as printed); S10V derived by comparing it with the table''s wild-type CDR3 ASSPTGGSPSPLH', 'bin 3'),
  ('[…] (CDR3 as printed); S10T derived by comparing it with the table''s wild-type CDR3 ASSPTGGSPSPLH', 'bin 3'),
  ('[…] (CDR3 as printed); G6Y derived by comparing it with the table''s wild-type CDR3 ASSPTGGSPSPLH', 'bin 1');

Now for a further variant.
Dear colleague, I would appreciate it if you could identify the bin for […] (CDR3 as printed); S3F derived by comparing it with the table's wild-type CDR3 ASSPTGGSPSPLH and reply at your convenience.
bin 3
